procedure.summary: Intrinsic clearance in rat hepatocytes assessed per million cells
Type: ADME, cell-based, Hepatocyte
study.conditions: read-out: CLH
assay.readout: hepatocyte CLint (µL/min/1e6 cells)
The answer is to be given in µL/min/1e6 cells; state only the numeric part.

Qu. Endpoint output: hepatocyte CLint of C[C@]12C=CC(=O)C=C1CC[C@@H]1[C@@H]2[C@@H](O)C[C@@]2(C)[C@H]1CC[C@]2(O)C(=O)CO . Value?
Ans. 27

---

Record form. Attribute: bioavailability. Fill in for each entry.
procedure.summary: in vivo
study.conditions: Wistar, rat, po, 10 umol/kg
The answer is to be given in %; state only the numeric part.

Qu. Endpoint output: bioavailability of C[C@H](NC(=O)C(F)(F)F)[C@H](Oc1ccc2c(cnn2-c2ccc(F)cc2)c1)c1ccccc1 . Value?
Ans. 53

Qu. Endpoint output: bioavailability of COc1ccc([C@@H](Oc2ccc3c(cnn3-c3ccc(F)cc3)c2)[C@H](C)NC(=O)C2CC2)cn1 . Value?
Ans. 66

---

Record form. Attribute: AUC. Fill in for each entry.
procedure.summary: in vivo
study.conditions: Lewis, rat, po
Description: AUC in Lewis rat model of SCW-induced joint inflammation at anti-inflammatory ED50 administered via oral gavage once daily for 8 days measured 24 hrs post last dose on day 8 by LC/MS/MS analysis
The answer is to be given in µM·h; state only the numeric part.

Qu. Endpoint output: AUC of COc1ccc([C@@H](Oc2ccc3c(cnn3-c3ccc(F)cc3)c2)[C@H](C)NC(=O)C2CC2)cn1 . Value?
Ans. 0.035

Qu. Endpoint output: AUC of C[C@]12C=CC(=O)C=C1CC[C@@H]1[C@@H]2[C@@H](O)C[C@@]2(C)[C@H]1CC[C@]2(O)C(=O)CO [PREDNISOLONE] . Value?
Ans. 0.59

Qu. Endpoint output: AUC of C[C@H](NC(=O)C(F)(F)F)[C@H](Oc1ccc2c(cnn2-c2ccc(F)cc2)c1)c1ccccc1 . Value?
Ans. 0.08
